- tested system: T1, recombinant human MUC1-SEA (Homo sapiens, UniProt P15941)
- T1 construct: on recombinant human MUC1-SEA on SPR; purchased Acrobiosystems MU1-H52H9
- T1 sequence (P15941 1039-1148 limits assumed): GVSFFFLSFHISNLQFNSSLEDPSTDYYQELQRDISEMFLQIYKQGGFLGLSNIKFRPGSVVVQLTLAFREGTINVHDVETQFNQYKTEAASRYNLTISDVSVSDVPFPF
- assay explanation: Binding strength by Surface Plasmon Resonance (SPR)
- measurement conditions: Table 2
endpoint label: kd (s⁻¹)
Report the value in s⁻¹ with no unit label.

Briefly, kd measured for HM5 LM3: variant of SP66; VH HM5 SEQ ID NO: 11, VL LM3 SEQ ID NO: 14 (antibody, V domains shown) VH: EIQLVQSGAEVKKPGSSVKVSCKVTGHSITRGSSWHWMRQAPGQGLEWIGYIHYGGGTSYNPSLKSRITITRDTSTNTFYMELSSLRSEDTAFYFCARYSYDITYRWFFDVWGQGTLVTVSS VL: DIQMTQSPSTLSASVGDRVTITCRASQNIGTSIHWYQQKPGKAPKLLIKYASESISGVPSRFSGSGSGTEFTLTISSLQPDDFATYYCQQNNNWPLTFGQGTKVEVK : 0.000198
